Test: Toxicity liver stage against HepG2, at 10uM
Format: cell-based
Design: test concentration 10 uM, cell line HepG2-A16-CD81EGFP
Details: human, HepG2-A16-CD81EGFP cells; read-out: INHIBITION
OBSERVABLE: cytotoxicity at 10 µM (%)
One number for each entry, in %.

Below: 3 compounds and their reported cytotoxicity at 10 µM.
{"COMPOUND": "Cc1nnc(CN(Cc2cccc3c2OCO3)CC2CCCO2)n1C (stereo not drawn)", "UNIT SYMBOL": "%", "REPORTED MEASUREMENT": 3.93}
{"COMPOUND": "CN(C)C(=O)COC[C@@]12CCC[C@@H]1CNC2", "UNIT SYMBOL": "%", "REPORTED MEASUREMENT": 0.903}
{"COMPOUND": "O=C(C1CCCO1)N1CC[C@@H]2CN(Cc3ccccc3)S(=O)(=O)[C@@H]2CC1 (stereo partly drawn)", "UNIT SYMBOL": "%", "REPORTED MEASUREMENT": 12.9}

# batch: return cytotoxicity at 10 µM for each of the 7 compounds below
1. O=C1CC[C@H]2CN(Cc3cccnc3)CC[C@H]2N1CCc1c[nH]cn1
2. Cc1oc(-c2ccccc2)nc1CN1CCC(c2ccnn2C)CC1
3. CS(=O)(=O)N1CCC2(CC1)CN(CC1CC1)CC21CCNC1=O (stereo not drawn)
4. COc1cccc2c1OCC(C(=O)NCc1c(C)noc1C)C2 (stereo not drawn)
5. Cc1cc(C)c(Cn2cncn2)cc1CN1CC[C@H](CO)[C@@H](O)C1
6. COCC1c2c(cnn2C)CCN1Cc1ccc(F)cc1 (stereo not drawn)
7. Cc1cc(C(=O)N2CCc3nnc(N)cc3C2)c(C)n1-c1ccccc1

Ans.
[-1.36, 15.6, 1.26, -15.5, -5.42, -10.6, 0.591]

###

Test: Toxicity liver stage against HepG2, at 10uM
Format: cell-based
Set-up: test concentration 10 uM, cell line HepG2-A16-CD81EGFP
Details: human, HepG2-A16-CD81EGFP cells; read-out: INHIBITION
OBSERVABLE: cytotoxicity at 10 µM (%)
Answers are plain numbers, in %.

# batch: return cytotoxicity at 10 µM for each of the 4 compounds below
1. c1ccc(Cn2ccnc2CNCC2CCCN2c2cccnn2)cc1 (centres undefined)
2. CCN1CCCc2cc(CN3CCc4nc(C)[nH]c(=O)c4C3)ccc21
3. O=C(c1cccnc1)N1Cc2nccn2CC(COc2cccnc2)C1 (centres undefined)
4. c1nc2n(c1CN1CCCCC1)CCN(C1CCOC1)CC2 (centres undefined)

Ans.
-9.86
0.13
4.01
-152

# batch: return cytotoxicity at 10 µM for each of the 6 compounds below
1. CCOC(=O)C(CO)NC(=O)CCc1cccc(OC2CCCC2)c1 (centres undefined)
2. Cc1cc(F)ccc1OC1(C(=O)O)CCN(Cc2cccnc2N)CC1
3. CCOCC1CN(c2ccc(C)nn2)Cc2nn(CC)cc21 (centres undefined)
4. COc1ccc2c(ccn2CCC(=O)Nc2ccc(C(N)=O)cc2)c1
5. CS(=O)(=O)NCc1nnc2n1CCN(Cc1ccncc1)C2
6. COc1ccc(-c2cc(C3(O)CCOC(C)(C)C3)on2)cc1 (centres undefined)

Ans.
1. -7.08
2. -1.83
3. 11.5
4. 6.1
5. -73.6
6. -3.12

# batch: return cytotoxicity at 10 µM for each of the 2 compounds below
1. CNc1nc2c(s1)C(c1ccccc1F)CC(=O)N2 (centres undefined)
2. Fc1cnc(N2CCC3(CC2)CN(Cc2cccs2)CCO3)nc1

Ans.
[4.43, 12.4]

###

Test: Toxicity liver stage against HepG2, at 10uM
Assay type: cell-based
Parameters: test concentration 10 uM, cell line HepG2-A16-CD81EGFP
Settings: human, HepG2-A16-CD81EGFP cells; read-out: INHIBITION
OBSERVABLE: cytotoxicity at 10 µM (%)
One number for each entry, in %.

Below: 5 compounds and their reported cytotoxicity at 10 µM.
{"COMPOUND": "Cc1nc(CN2C(=O)CC[C@@H]3[C@H]2CCN3C(=O)NC2CC2)cs1", "UNIT SYMBOL": "%", "cytotoxicity at 10 µM": 9.37}
{"COMPOUND": "CCOCC1c2c(ncn2C)CCN1C(=O)c1cnc(C)cn1 (stereo unspecified)", "UNIT SYMBOL": "%", "cytotoxicity at 10 µM": -108}
{"COMPOUND": "CC(C)CCN1CCN(C(=O)c2c[nH]nn2)CC1", "UNIT SYMBOL": "%", "cytotoxicity at 10 µM": 1.64}
{"COMPOUND": "COC(=O)Cc1cccc(NC(=O)Cc2ccon2)c1", "UNIT SYMBOL": "%", "cytotoxicity at 10 µM": -2.93}
{"COMPOUND": "CCN(C(=O)CN1CCCC1c1ccc(OC)cc1)c1ccccc1 (stereo unspecified)", "UNIT SYMBOL": "%", "cytotoxicity at 10 µM": -2.25}

Below: the item to evaluate.
Qu. Sample CN1C(=O)CC(C(=O)O)C12CCN(Cc1cc(Cl)ccc1F)CC2 (stereo unspecified) — what was its cytotoxicity at 10 µM?
Ans. 5.64

###

Test: Toxicity liver stage against HepG2, at 10uM
Format: cell-based
Design: test concentration 10 uM, cell line HepG2-A16-CD81EGFP
Conditions: human, HepG2-A16-CD81EGFP cells; read-out: INHIBITION
Record form. Attribute: cytotoxicity at 10 µM. Fill in for each entry.
One number for each entry, in %.

{"COMPOUND": "O=C1CC2(CCCCN2CC2CC2)CN1c1ccccc1 (configuration not stated)", "cytotoxicity at 10 µM (%)": 4.86}
{"COMPOUND": "O=C(O)c1nnn(-c2ccc(F)c(F)c2)c1-c1ccncc1", "cytotoxicity at 10 µM (%)": 3.72}
{"COMPOUND": "Cc1cc(C)cc(CCC(=O)N2CCN(c3cc(C)nc(N)n3)CC2)c1", "cytotoxicity at 10 µM (%)": -38.7}
{"COMPOUND": "CN1CC(c2ccccc2)CC12CCN(C(=O)c1ccncc1)CC2 (configuration not stated)", "cytotoxicity at 10 µM (%)": -7.96}
{"COMPOUND": "CC(C)NC(=O)c1ccc2nnc(C3CCN(C(=O)NC(C)C)C3)n2c1 (configuration not stated)", "cytotoxicity at 10 µM (%)": -5.42}

# batch: return cytotoxicity at 10 µM for each of the 8 compounds below
1. Cc1cc(C(=O)N2CCOC(c3nc(C(C)C)n[nH]3)C2)no1 (configuration not stated)
2. O=C(c1ccc(C(F)(F)F)cc1)N1C[C@@H](CN2CCCCC2)[C@@H](CO)C1
3. OC1CCN([C@@H]2CCN(c3nc(-c4ccccc4)no3)C[C@H]2O)CC1
4. Cc1ccc(C(=O)N2CCCCC2c2[nH]ncc2S(C)(=O)=O)cn1 (configuration not stated)
5. CN(C)Cc1nnc(C2CCN(C(=O)CCc3cccs3)CC2)n1C
6. Cc1ccc(CN2CC3(CCN(S(=O)(=O)c4ccccc4)C3)C2)o1
7. Cc1nc[nH]c1CN1CCC(C2CCN(CCc3ccccc3)C2)CC1 (configuration not stated)
8. O=c1[nH]c(C2CCOC2)nc2ccc(Br)cc12 (configuration not stated)

Ans.
[-5.13, 0.313, -9.88, -6.72, -15.9, -2.3, -3.52, 7.85]

###

Record form. Attribute: cytotoxicity at 10 µM. Fill in for each entry.
Experiment: Toxicity liver stage against HepG2, at 10uM
Format: cell-based
Parameters: test concentration 10 uM, cell line HepG2-A16-CD81EGFP
Settings: human, HepG2-A16-CD81EGFP cells; read-out: INHIBITION
Numbers only, in %.

{"COMPOUND": "c1ccc(-c2cccc(N3CCC(NCCc4cscn4)CC3)c2)cc1", "cytotoxicity at 10 µM / %": 3.58}
{"COMPOUND": "CCc1c(C)nc2ccccc2c1N1CCC(C(=O)NC)CC1", "cytotoxicity at 10 µM / %": 3.85}
{"COMPOUND": "CC(O)(CCc1ccccc1)CNC(=O)c1ccsc1 (centres undefined)", "cytotoxicity at 10 µM / %": -1.18}
{"COMPOUND": "Cc1ccc(CN(Cc2ccncc2)C2CC(C)(C)NC(C)(C)C2)o1", "cytotoxicity at 10 µM / %": -12.3}
{"COMPOUND": "Cc1cc(CN2CCCC2)cc(Oc2nc(C)cnc2C)c1", "cytotoxicity at 10 µM / %": -2.54}

# batch: return cytotoxicity at 10 µM for each of the 3 compounds below
1. Cc1nc(NC(C)C)nc2c1CN(Cc1cccs1)CC2
2. Cc1cc(NC(=O)CN2CCCC(Cn3nc(C)nc3C)C2)n(C)n1 (centres undefined)
3. CC(C)CN1CCc2c(CN(C)Cc3ccco3)cncc2C1

Ans.
1: 0.718; 2: -9.54; 3: 8.1

# batch: return cytotoxicity at 10 µM for each of the 7 compounds below
1. CN(C)C(=O)CO[C@@H]1CN(Cc2ccccc2)[C@@H]2CCCO[C@@H]21
2. CCN(Cc1nc(C)no1)C(=O)C1CC(=O)N(Cc2cccnc2)C1 (centres undefined)
3. CSCCC(=O)N1CCCC(n2ccnc2)C1 (centres undefined)
4. CN(C)c1nc(N)nc(CSCCC(=O)Nc2ccc(F)cc2)n1
5. Cc1cc(C)n(CC2CN(CC(=O)NC3(C#N)CCCC3)CCO2)n1 (centres undefined)
6. CC(=O)N(C)C1CCN(c2ncc3c(n2)CCN3c2ccccc2)C1 (centres undefined)
7. CN1CCN(Cc2cccnc2)C(=O)C12CCN(C1CCOC1)CC2 (centres undefined)

Ans.
1: 3.09; 2: 4.03; 3: -6.28; 4: -1.33; 5: -2.49; 6: -9.62; 7: -111

Cited source for all entries: ChEMBL document CHEMBL4513216
